Tested on: Erythrocyte beta receptor
assayNotes: Free energy of binding to turkey erythrocyte beta receptor
Set-up: unit not given here
details: Meleagris gallopavo
measuredMetric: Delta G

CC(C)NC[C@H](O)COc1cccc2c(O)cccc12
-11.2
CNC[C@H](O)c1ccc(O)c(O)c1
-7.86
CCNC[C@H](O)c1ccc(O)c(O)c1
-7.59

Please give Delta G, item by item, for the list that follows.
1. NC[C@H](O)c1ccc(O)c(O)c1
2. CNC[C@H](O)c1ccc(O)cc1
3. CC(CCc1ccccc1)N[C@@H](C)[C@H](O)c1ccc(O)cc1 (stereo not given in full)
4. CC(C)NC[C@H](O)COc1ccc(N)cc1
5. CC[C@H](NC(C)C)[C@H](O)c1ccc(O)c(O)c1
6. NC[C@H](O)c1cccc(O)c1
7. CC(C)(Cc1ccc(O)cc1)NC[C@H](O)COc1cccc2ccccc12

Reply:
1. -7.26
2. -6.01
3. -9.55
4. -8.96
5. -8.02
6. -7.23
7. -11.2

Please give Delta G, item by item, for the list that follows.
1. CC(C)(Cc1ccc(O)cc1)NC[C@H](O)c1cc(O)cc(CO)c1
2. CC(C)NC[C@H](O)c1ccc(O)c(CS(C)(=O)=O)c1
3. CC(C)NC[C@H](O)c1ccc2ccccc2c1
4. CC(C)NC[C@H](O)c1ccc(O)c(NS(C)(=O)=O)c1
5. C[C@H](NCCc1ccccc1)[C@H](O)c1ccc(O)cc1
6. CC(C)(C)NC[C@H](O)COc1cccc2[nH]ccc12
7. CNC[C@H](O)c1ccccc1
8. CC(C)NC[C@H](O)c1ccc(O)c2ncccc12

Reply:
[-7.61, -7.85, -9.06, -7.36, -9.01, -13.5, -6.79, -10.4]

Please give Delta G, item by item, for the list that follows.
1. C=CCc1ccccc1OC[C@@H](O)CNC(C)C
2. CC(=O)Nc1ccc(OC[C@@H](O)CNC(C)C)cc1
3. CNC[C@H](O)c1cccc(O)c1
4. CC(Cc1ccc(O)cc1)NC[C@H](O)c1cc(O)cc(O)c1 (stereo not given in full)
5. CC(C)NC[C@H](O)c1ccc(Cl)c(Cl)c1
6. CC(C)NC[C@H](O)c1ccc(O)cc1
7. C=CCOc1ccccc1OC[C@@H](O)CNC(C)C

Reply:
1: -12.1; 2: -7.54; 3: -6.72; 4: -8.62; 5: -8.83; 6: -7.54; 7: -11.6

###

Tested on: Erythrocyte beta receptor
assayNotes: Free energy of binding to turkey erythrocyte beta receptor
Set-up: unit not given here
details: Meleagris gallopavo
Please provide measured Delta G for the entries that follow.
Answers are plain numbers.

Examples with their reported Delta G follow.
NC[C@H](O)c1ccc(O)cc1
-5.94
COc1ccc(CCNC[C@H](O)COC2=CC=CC3C(=O)C=CC=C23)cc1OC (stereo partly specified)
-11.3
CC(C)(C)NC[C@H](O)c1cc(O)cc(CO)c1
-6.58
CC(C)NC[C@@H](O)COc1cccc2ccccc12
-11.7
CC(C)(C)NC[C@H](O)c1ccc(O)c(CO)c1
-8.23
CC(C)(C)NC[C@H](O)COC1=CC=CC2C(=O)C=CC=C12 (stereo partly specified)
-11.9

Please give Delta G, item by item, for the list that follows.
1. O[C@@H](CNc1ccccc1)c1ccccc1
2. CC[C@H](NC(C)C)[C@H](O)c1ccc(NS(C)(=O)=O)cc1
3. C[C@H](COc1ccccc1)NC[C@H](O)c1ccc(O)cc1
4. CC(C)NC[C@H](O)c1cccc(O)c1
5. CC(C)NC[C@H](O)COc1cccc2[nH]ccc12
6. C[C@H](N)[C@H](O)c1ccc(O)c(O)c1
7. CN[C@@H](C)[C@H](O)c1ccc(O)cc1
8. CC(Cc1ccc(O)cc1)NC[C@H](O)c1ccc(O)c(O)c1 (stereo partly specified)

Reply:
1. -5.76
2. -7.41
3. -7.95
4. -7.99
5. -13
6. -9.64
7. -6.47
8. -10.4

Please give Delta G, item by item, for the list that follows.
1. CC(C)NC[C@H](O)c1cc(O)cc(O)c1
2. CC(C)(Cc1ccc(O)cc1)NC[C@H](O)COc1cccc2[nH]ccc12

Reply:
1: -7.13; 2: -14.7
